PROTOCOL_DESCRIPTION: ATG_FoxO_CIS: Attagene CIS-FACTORIAL HepG2 Assay for human Forkhead box O (FoxO) (AID 2282943)
CONDITIONS: HepG2 Attagene cis-reporter, FoxO element, mRNA; actives raise or lower the signal
Active and inactive are the calls of the source. Rule for the calls: active = hit-call score of the fitted dose curve at least 0.9, where 1 is the maximum; inactive = score below 0.9.

| STRUCTURE | AC50 |
| --- | --- |
| Cl[C@H]1OCCO[C@@H]1Cl | inactive |
| CC1(C)[C@H](/C=C2\CCSC2=O)[C@@H]1C(=O)OCc1coc(Cc2ccccc2)c1 | inactive |
| Cc1cc(C)cc(C)c1 | inactive |
| CCOC(=O)CCN(SN(C)C(=O)Oc1cccc2c1OC(C)(C)C2)C(C)C | inactive |
| CCOP(=S)(OCC)SCSc1cc(Cl)ccc1Cl | inactive |
| Cc1cc(C(C)(C)c2ccc(O)c(C)c2)ccc1O | 72.8 µM (active) |
| OC(c1ccc(Cl)cc1)(c1ccc(Cl)cc1)c1cccnc1 | inactive |
| N#Cc1cccnc1 | inactive |
| Brc1c(Br)c(Br)c(Oc2c(Br)c(Br)c(Br)c(Br)c2Br)c(Br)c1Br | inactive |
| O=C=Nc1ccc(Cl)cc1 | 162 µM (active) |
| Clc1ccc(C(Cl)(Cl)Cl)cn1 | inactive |
| CC(C)(C)c1ccccc1O | inactive |
| CCCCCCCCCCCCc1cccc(S(=O)(=O)O)c1 | inactive |

###

PROTOCOL_DESCRIPTION: Tanguay_ZF_120hpf_YSE_legacy: (Legacy) Oregon State University Tanguay Lab 120 Hour Post-fertilization zebrafish Assay for Yolk Sac Edema (AID 2283634)
Inconclusive results are not listed. Calls of active or inactive are those of the source. How the source made its calls: active means hit-call score of the fitted dose curve at least 0.9, where 1 is the maximum; inconclusive means response in the unintended direction; inactive means score below 0.9.
Outcome codes: 1.0 = active, 0.0 = inactive

| STRUCTURE | CATEGORY |
| --- | --- |
| N#Cc1cccnc1 | 0.0 |
| COc1ccccc1N | 0.0 |
| O=C(O)C1(c2ccc3c(c2)OC[C@H](Cc2ccc(-c4ccccc4)cc2)[C@H]3O)CCCC1 | 0.0 |
| CN(C)C(=S)S | 1.0 |
| Oc1c(Cl)cc(Cl)cc1Cl | 0.0 |
| Cc1cc(C)cc(C)c1 | 0.0 |
| O=C(N[C@H]1CN2CCC1CC2)c1ccc2c(c1)OCCO2 | 0.0 |
| Clc1cccc(Cl)c1 | 0.0 |

###

PROTOCOL_DESCRIPTION: CCTE_Mundy_HCI_Cortical_Synap_Neur_Matur_NeuriteCount: CCTE's Synaptogenesis and Neurite Maturation Assay in rat cortical cells for Neurite Count, Mundy Lab (AID 2284222)
Calls of active or inactive are those of the source. Rule for the calls: active = hit-call score of the fitted dose curve at least 0.9, where 1 is the maximum; inactive = score below 0.9.
Possible outcomes: active, inactive

| COMPOUND | CATEGORY |
| --- | --- |
| CCOCn1c(-c2ccc(Cl)cc2)c(C#N)c(Br)c1C(F)(F)F | active |
| NC(=O)c1ccc(N)nc1 | active |
| CNC(=O)CSP(=O)(OC)OC | inactive |
| OC(Cc1ccccc1Cl)(Cn1[nH]cnc1=S)C1(Cl)CC1 (stereo unspecified) | active |
| Cc1cc(C(F)(C(F)(F)F)C(F)(F)F)ccc1NC(=O)c1cccc(I)c1C(=O)NC(C)(C)CS(C)(=O)=O | inactive |
| CC1(C)[C@H](C(=O)O[C@H](C#N)c2cccc(Oc3ccccc3)c2)[C@@H]1/C=C(\Cl)C(F)(F)F | active |

###

PROTOCOL_DESCRIPTION: APR_HepG2_MicrotubuleCSK_72hr: Apredica 72-hour HepG2 Assay for Microtubule CSK Stabilty (AID 2282919)
CONDITIONS: HepG2 microtubule cytoskeleton, high-content imaging, actives raise or lower the signal
Calls of active or inactive are those of the source. Rule for the calls: active = hit-call score of the fitted dose curve at least 0.9, where 1 is the maximum; inactive = score below 0.9.
Outcomes: active, inactive

| STRUCTURE | CATEGORY |
| --- | --- |
| Clc1cccc(Cl)c1Cl | inactive |
| Oc1cc(Cl)c(Cl)cc1Cl | inactive |
| CN(C)C(=S)S | active |
| O=C(N[C@H]1CN2CCC1CC2)c1ccc2c(c1)OCCO2 | inactive |
| CC(C)(C)c1ccccc1O | inactive |
| N#Cc1cccnc1 | inactive |

###

PROTOCOL_DESCRIPTION: CCTE_Shafer_MEA_dev_burst_duration_mean: CCTE's Neural Network Formation Assay for Mean Burst Duration, Shafer Lab (AID 2284045);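 for AC50: curve fitted for loss meaning shorter burst duration than DMSO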
The source made the active and inactive calls. Rule for the calls: active = hit-call score of the fitted dose curve at least 0.9, where 1 is the maximum; inactive = score below 0.9.
READOUT: AC50

| COMPOUND | READOUT | VALUE_REPORTED |
| --- | --- | --- |
| CCOCn1c(-c2ccc(Cl)cc2)c(C#N)c(Br)c1C(F)(F)F | AC50 | 2.71 µM (active) |
| C=CC(F)(C(F)(F)F)C(F)(F)C(F)(F)F (configuration not stated) | AC50 | inactive |
| Cc1cc(C(F)(C(F)(F)F)C(F)(F)F)ccc1NC(=O)c1cccc(I)c1C(=O)NC(C)(C)CS(C)(=O)=O | AC50 | inactive |
| CS(=O)(=O)c1ccc(C(=O)C2C(=O)CCCC2=O)c(Cl)c1COCC(F)(F)F | AC50 | inactive |
| FC(F)OCC(F)(F)C(F)(F)F | AC50 | inactive |
| NC(=O)c1ccc(N)nc1 | AC50 | 8.66 µM (active) |
| CC(=O)C(F)(F)C(F)(F)F | AC50 | inactive |

###

PROTOCOL_DESCRIPTION: ATG_TAL_CIS: Attagene CIS-FACTORIAL HepG2 Assay for human TAL Basal Promoter (AID 2282966);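 note: background control endpoint measuring basal TAL promoter reporter mRNA not a specific factor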
CONDITIONS: HepG2 Attagene cis-factorial TAL promoter reporter; actives raise or lower the signal
The source made the active and inactive calls. How the source made its calls: active means hit-call score of the fitted dose curve at least 0.9, where 1 is the maximum; inactive means score below 0.9.
Outcomes: 1 (yes) (active), 0 (no) (inactive)

| MOLECULE | CATEGORY |
| --- | --- |
| CCOP(=S)(OCC)SCS(=O)(=O)C(C)(C)C | 0 (no) |
| CC(=O)C(F)(F)C(F)(F)F | 0 (no) |
| c1ccc2c(c1)Oc1ccccc1O2 | 0 (no) |
| Nc1nc(N)nc(Cl)n1 | 0 (no) |
| O=[N+]([O-])c1cccc2ccccc12 | 0 (no) |
| CN(C)[C@@H]1C(=O)C(C(N)=O)=C(O)[C@@]2(O)C(=O)C3=C(O)c4c(O)ccc(Cl)c4[C@@](C)(O)[C@H]3C[C@@H]12 | 0 (no) |
| OC(Cc1ccccc1Cl)(Cn1cncn1)C1(Cl)CC1 (stereo unspecified) | 0 (no) |
| C=CC(=O)OCC(COC(=O)C=C)(COC(=O)C=C)COC(=O)C=C | 0 (no) |
| CCOP(=O)(OCC)SCCSCC | 0 (no) |
| C#CCOC(=O)/C=C(C)/C=C/CC(C)CCCC(C)C (stereo unspecified) | 0 (no) |
| COC(F)(C(F)(F)C(F)(F)F)C(F)(C(F)(F)F)C(F)(F)F (stereo unspecified) | 0 (no) |
| Cc1ccccc1OP(=O)(Oc1ccccc1C)Oc1ccccc1C | 0 (no) |
| COCC(=O)N(c1c(C)cccc1C)[C@H](C)C(=O)OC | 0 (no) |
| CCOC(=O)C(SP(=S)(OC)OC)c1ccccc1 (stereo unspecified) | 0 (no) |
| NNCCO | 0 (no) |
| C[C@@H]1O[C@@H](O[C@H]2C[C@@H](O)[C@]3(CO)[C@H]4[C@H](O)C[C@]5(C)[C@@H](C6=CC(=O)OC6)CC[C@]5(O)[C@@H]4CC[C@]3(O)C2)[C@H](O)[C@H](O)[C@H]1O | 1 (yes) |
| Cc1cc(Cl)ccc1OCCCC(=O)O | 0 (no) |
| Cc1cc(C(C)(C)c2ccc(O)c(C)c2)ccc1O | 0 (no) |
| COc1ccc([N+](=O)[O-])cc1O | 0 (no) |
| N#Cc1ccncc1 | 0 (no) |
| OCC(c1ccc(Cl)cc1)c1ccc(Cl)cc1 | 0 (no) |
| O=C(O)CC(O)(CC(=O)O)C(=O)O | 0 (no) |
| Nc1c(Oc2ccccc2)cc(O)c2c1C(=O)c1ccccc1C2=O | 0 (no) |
| O=C(Cl)OCCOCCOC(=O)Cl | 0 (no) |
| CCCCCCCCCCCCCl | 0 (no) |
| N#CCCC(Br)(C#N)CBr (stereo unspecified) | 0 (no) |
| O=c1[nH]c(=O)n(Cl)c(=O)n1Cl | 0 (no) |
| Cl[C@H]1OCCO[C@@H]1Cl | 0 (no) |
| O=C(NC(=O)c1c(F)cccc1F)Nc1ccc(Cl)cc1 | 0 (no) |
| CC(c1ccccc1)(c1ccc(O)cc1)c1ccc(O)cc1 | 0 (no) |
| CCOC(=O)CC(=O)CCl | 0 (no) |
| CN(N=O)c1ccc([N+](=O)[O-])cc1 | 0 (no) |
| CCC[CH2][Sn]([CH2]CCC)([CH2]CCC)[CH2]CCC | 0 (no) |
| CCCCC(CC)C(=O)Cl (stereo unspecified) | 0 (no) |
| ClCCN1CCOCC1 | 0 (no) |
| O=C(O)COc1ccc(Cl)cc1 | 0 (no) |
| Nc1ccc(N)cc1 | 0 (no) |
| CC(C)=CC1C(C(=O)OCc2cccc(Oc3ccccc3)c2)C1(C)C (stereo unspecified) | 0 (no) |
| COP(=S)(OC)Oc1cc(Cl)c(I)cc1Cl | 0 (no) |
| CC(C)O.CC(C)O.OCCN(CCO)CCO.OCCN(CCO)CCO.[Ti] | 0 (no) |
| BrCCCCBr | 0 (no) |
| CC(C=O)Cc1ccc2c(c1)OCO2 (stereo unspecified) | 0 (no) |
| CCCCOC(C)=O | 0 (no) |
| Oc1c(Br)cc(Br)cc1Br | 0 (no) |
| O=NN1CCOCC1 | 0 (no) |
| Clc1cccc(Cl)c1Cl | 0 (no) |
| CCOP(=O)(OCC)OC(=CCl)c1ccc(Cl)cc1Cl | 0 (no) |
| CN(C)C(=S)S | 0 (no) |
| CCOC(=O)c1ccccc1S(=O)(=O)NC(=O)Nc1nc(Cl)cc(OC)n1 | 0 (no) |
| Cc1ccc(OP(=O)(Oc2ccc(C)cc2C)Oc2ccc(C)cc2C)c(C)c1 | 0 (no) |
| CCCCCCCCCCCCc1cccc(S(=O)(=O)O)c1 | 0 (no) |
| O=S(=O)(Oc1ccc(Cl)cc1)c1ccc(Cl)cc1 | 0 (no) |
| C=CCN=C=S | 0 (no) |
| N#Cc1cccnc1 | 0 (no) |
| Nc1ccc(-c2ccccc2)cc1 | 0 (no) |
| O=C(CBr)c1ccc(O)cc1 | 0 (no) |
